# credit: patent US20260193326A1

Reported kon values are given for each entry in this list.
measured target: T1, AAV5 (adeno-associated virus 5)
T1 construct: also called adeno-associated virus serotype 5
method: SPR, AAV amine-coupled to CM5 chip;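 note: nanobodies flowed as analyte at seven concentrations spanning 1–100 nM over immobilized AAV (500–800 RU), kinetic constants derived by fitting the binding curves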

binder | kon
A4-052 (VHH) VHH: VQLQESGGGLVQPGGSLRLSCAASGSIFIINTMGWYRQAPGKQRELVAAVTRGGSTNYADSVKGRFTISRDNAKNTVYLQMNSLRPEDTAVYYCHVDEVRQSSWTTSNLWGQGTQVTVSS | 1440 M⁻¹ s⁻¹
A4-063 (VHH) VHH: VQLQESGGGLVQPGGSLRLSCAASGRRFTINTMGWYRRAPGKQRELVATITRGGSTNYAGSVKGRFTISRDNPKNTVYLQMNSLRPEDTAVYYCHIDEVRQSSWTTSNLWGQGTQVTVSS | 65000 M⁻¹ s⁻¹
A4-092 (VHH) VHH: VQLQESGGGLVQTGGSLRLSCLASGSIFSINTMGWYRQRAGKQRELVATVTRAGSTNYADSVKGRFTISRDNAKNTVYLQMNSLRPEDTAVYYCHVDEIRESSWTTSNLWGQGTQVTVSS | 51600 M⁻¹ s⁻¹
A4-055 (VHH) VHH: VQLQESGGGLVQPGGSLRLSCAASGSIFSINTMGWYRQAPGKQRELVAAVTRGGSTNYADSVKGRFTISRDNAKNTVYLQMNSLRPEDTAVYYCHVDEVRQSSWTTSNLWGQGTQVTVSS | 198000 M⁻¹ s⁻¹
